Cited source for all entries: ChEMBL document CHEMBL5303304

Please provide measured Growth Rate for the entries that follow.
- Tested on: U2OS
- Assay Summary: Incucyte cell viability with U2OS; note: unitless GR value; below 1 slowed growth and below 0 cell loss
- Type: toxicity, cell-based
- Measurement Conditions: human, 0 h, 10 µM, compound concentration 10 uM, replicate number 2
Enter a number only.

// molecule Cn1c(=O)n(CCCO)c(=O)c2c1nc(Oc1cccc(OC(F)(F)F)c1)n2Cc1ccc(Cl)cc1 , assay U2OS, Growth Rate value: -0.21

// molecule CCN1CCN(Cc2ccc(NC(=O)Nc3ccc(Oc4cc(NC)ncn4)cc3)cc2C(F)(F)F)CC1 , assay U2OS, Growth Rate value: -0.84

// molecule CC/C(=C(\c1ccc(O)cc1)c1ccc(OCCN(C)C)cc1)c1ccccc1 , assay U2OS, Growth Rate value: -0.96

// molecule Cn1cc(-c2cnc3ccc4ccc(CS(=O)(=O)NCc5ccccn5)cc4c(=O)c3c2)cn1 , assay U2OS, Growth Rate value: 0.2
